Listed here: items and their measured growth.
tested on: HS 578T breast; test: NCI-60 one-dose screen, 48 h (100 = growth as untreated, 0 = no growth, -100 = all killed); details: 10 µM unless noted
The panel holds about 83,000 compounds, 20% with a hit somewhere; the sample as a whole holds those more often. Activity calls are given as the source filed them. How the source made its calls: active means growth percent below 10; inactive means the rest.

{"smiles.notation": "COc1ccc(-c2nc(SCC(=O)Nc3ccc(C(C)=O)cc3)[nH]c(=O)c2C#N)cc1", "growth": "115% (inactive)"}
{"smiles.notation": "NC1(N)C=CC2=C(C=C1)C1(N)C3=C(C=CC(N)(N)C=C3)N2C2(N)C3=C(C=CC(N)(N)C=C3)N1C1=C2C=CC(N)(N)C=C1", "growth": "81.6% (inactive)"}
{"smiles.notation": "O=C(N/N=C/c1ccccc1SSc1ccccc1/C=N/NC(=O)c1ccccc1)c1ccccc1", "growth": "75.4% (inactive)"}
{"smiles.notation": "C=C(C)[C@@H]1CC[C@]2(C=NCCCNCCCCNCCCN)CC[C@]3(C)[C@H](CC[C@@H]4[C@@]5(C)CCCNC(C)(C)[C@@H]5CC[C@]43C)[C@@H]12", "growth": "104% (inactive)"}
